Think of 40 °C as a floor: if flash point stands on it or above, it is Fulfilled; beneath it, Not fulfilled.

Known results for compounds:
# compound, category
records = [
    ("CC(=O)C=C(C)C [mesityl oxide]", "Not fulfilled"),
    ("OCc1ccccc1", "Fulfilled"),
    ("Cc1cc(C)cc(C)c1", "Fulfilled"),
    ("CCCCCCCCN", "Fulfilled"),
    ("O=C(OCc1ccccc1)c1ccccc1 [benzyl benzoate]", "Fulfilled"),
]

Prompt: Entry CC(C)(C)c1ccco1 : is its flash point no less than 40 °C?
Completion: Not fulfilled

Prompt: Please tell me: is the compound CCCCCCCF at or over 40 °C in terms of flash point?
Completion: Not fulfilled

Prompt: Is flash point for Cc1cccc2ccccc12 at or above 40 °C?
Completion: Fulfilled

Prompt: Hi, just wondering whether CC=C(C)CC shows flash point of 40 °C or higher.
Completion: Not fulfilled

Prompt: For this compound, is measured flash point 40 °C or higher? CCCCOCC
Completion: Not fulfilled
